B1: tRNA (parent)
chain: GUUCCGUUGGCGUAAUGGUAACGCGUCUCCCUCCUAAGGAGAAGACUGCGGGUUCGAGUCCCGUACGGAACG

Variants of: B1
Experiment: yeast fitness relative to wild type (ratio to wild type); higher = fitter; tRNA-Arg(CCU), competitive growth, 37 C, YPD
This sample holds only a part of the variants without activity.
Kindly state yeast fitness for each of the entries shown.

Query: Field request: yeast fitness | item: G25A G58C A65G
Result: 1.04

Query: Given G58C G63A , state its recorded yeast fitness.
Result: 0.873

Query: I am curious: what yeast fitness value has been reported for C46A U47G G50A ?
Result: 0.544

Query: What value of yeast fitness has been reported for the following variant? U8A C31G C34U C55U G58A C61U
Result: ≤ 0.5

Query: Given A15U A40C C49U , state its recorded yeast fitness.
Result: 0.528

Query: Looking for the measured yeast fitness of C4A C66A , can you help?
Result: 0.569

Query: Quick one: yeast fitness of U2C G12A A15G C29G C33G G41C C66U ?
Result: ≤ 0.5

Query: Report yeast fitness for A20U C22G A40G G50C G51C G56A please.
Result: ≤ 0.5

Query: Return reported yeast fitness; argument: A42G A57U G67C
Result: ≤ 0.5

Query: Look up yeast fitness for this variant: C22G U54A U59A C61U
Result: ≤ 0.5

Query: Looking for the measured yeast fitness of C11A C34A U47A C61G , can you help?
Result: ≤ 0.5

Query: Fill in the blank: the reported yeast fitness of U3C G12A G50A is ____.
Result: 0.662

Query: Given C5G A15G C24G U32A C34G U64C G68A A69U A70U , state its recorded yeast fitness.
Result: ≤ 0.5

Query: Which measured yeast fitness value corresponds to U3C C49A ?
Result: 0.599

Query: Can you share its yeast fitness? I mean this variant: U3G G63A
Result: 0.849
